Origin of measurements: ChEMBL document CHEMBL1201862

GI50 values for the molecules below.
- Test system: HOP-62
- assay-comment: NCI tumour cell line growth inhibition, 48 h
Calls of active or inactive are those of the source. Rule as the data show it: active = GI50 up to about 1.1 µM and inactive = higher.
measured-parameter: GI50

* C=CCn1c(=O)c(C(=O)Nc2nc(C34CC5CC(CC(C5)C3)C4)cs2)c(O)c2ccccc21 | 30.6 µM (inactive)
* NC1=NC(NCC2(CO)CCC2)=CC(OCC2(CO)CCC2)N1 (stereo unspecified) | > 100 µM (inactive)
* COc1ccc(/C=C/[N+](=O)[O-])cc1 | 8.07 µM (inactive)
* O=C(Nc1ccccc1)c1cc2ccccc2c(/N=N/c2ccc([N+](=O)[O-])cc2)c1O | 30.6 µM (inactive)
* CCOc1cc(C(c2c(O)c3ccccc3oc2=O)c2c(O)c3ccccc3oc2=O)ccc1OC | 18.2 µM (inactive)
* COc1ccc(CC(=O)NCCc2ccc(OC)c(OC)c2)cc1Br | > 100 µM (inactive)
* O=C1C2=C(c3ccccc31)C(c1ccc(F)cc1)N1C(=O)CCSC1=N2 (stereo unspecified) | > 100 µM (inactive)
* CC(C)CNC1=NCC(C)S1 (stereo unspecified) | > 100 µM (inactive)
* Cc1nc2c(sc(=S)n2-c2ccccc2)c2nc3ccccc3n12 | > 100 µM (inactive)
* C=C1C(=O)OC2CCCCC3OC3C12 (stereo unspecified) | 21.8 µM (inactive)
* NC(=O)CCC(NC(=O)Cc1ccccc1)C(=O)O.NC(CCC(=O)NC(=O)Cc1ccccc1)C(=O)O (stereo unspecified) | > 8130 µM (inactive)

* * *

- Test system: NCI-H226
- assay-comment: NCI tumour cell line growth inhibition, 48 h
The source made the active and inactive calls. No stated cut-off is given here; in the data, active = GI50 up to about 1.1 µM and inactive = higher.
measured-parameter: GI50

• N=C(N)N/N=C/c1nc2sccn2c1[N+](=O)[O-] = 81.1 µM (inactive)
• O=C(c1ccccc1)c1nc2c(Cl)ccc(Cl)c2cc1C(Br)Br = 1.97 µM (inactive)
• COc1cc(S(=O)(=O)Nc2ccc(-c3csc(/N=C\c4cccs4)n3)cc2)ccc1Cl = 57.4 µM (inactive)
• COc1cc(C2SC(=N)Nc3c2c(C)nn3C(=O)Cc2ccccc2)ccc1O (stereo unspecified) = > 100 µM (inactive)
• COc1ccc(-c2oc(/C=N/NC(N)=S)c([N+](=O)[O-])c2-c2ccc(OC)c(OC)c2)cc1OC = 28.1 µM (inactive)
• COc1ccc(C(c2c(O)c3ccccc3n(C)c2=O)c2c(O)c3ccccc3n(C)c2=O)cc1 = 24.5 µM (inactive)
• Clc1ccc(CN2CCCN(Cc3ccc(Cl)cc3)C2c2cc3ccccc3c3ccccc23)cc1 = > 100 µM (inactive)
• [O-][N+]1=C(c2ccccc2)/C(=C2/C(c3ccccc3)=[N+]([O-])c3ccccc32)Cc2ccccc21 = 22.5 µM (inactive)
• CC(C)CC(NP(=O)(O)OC1OC(C)C(O)C(O)C1O)C(=O)NC(Cc1c[nH]c2ccccc12)C(=O)O (stereo unspecified) = > 100 µM (inactive)
• CN(C(=O)Cc1ccc(Cl)c(Cl)c1)[C@H]1CCCC[C@@H]1[N+]1(C)CCCC1 = > 100 µM (inactive)
• N#Cc1c(-c2ccccc2)c(/N=N/c2ccc(Cl)cc2)c(=O)n2c1[nH]c1ccccc12 = 65.9 µM (inactive)
• O=C(N/N=C1\CCc2ccccc21)N/N=C1\CCc2ccccc21 = > 100 µM (inactive)
• C(=N\c1ccc(-c2nc3ccccc3s2)cc1)/c1ccc[nH]1 = 14.8 µM (inactive)
• CNC(=O)OCc1cc2ccncc2c2c1[nH]c1ccccc12 = > 100 µM (inactive)
• Cc1nnc2n(c1=O)CCN2C = > 100 µM (inactive)
• CCOC(=O)C(C(=O)OCC)C(NC(=O)Nc1cc(C(F)(F)F)ccc1OC)(C(F)(F)F)C(F)(F)F = 25.5 µM (inactive)
• COc1cc(O)c2c(=O)c3c(C)cccc3n(C)c2c1 = > 10 µM (inactive)
• COc1cc(-c2[o+]c3cc(O)cc(O)c3cc2O)cc(O)c1O = > 100 µM (inactive)
• CN(Cc1cc(Cl)cc(Cl)c1)CC(C(=O)c1ccccc1)c1ccccc1 (stereo unspecified) = 5.5 µM (inactive)
• Cn1c(-c2c(C3=CC(=O)N(c4ccccc4)C3=O)c3ccccc3n2C)cc2ccccc21 = > 100 µM (inactive)
• c1ccc(/N=C(/Nc2ccccc2)N2CCCC2)cc1 = > 100 µM (inactive)
• CC(C)(C)OC(=O)NC1CCC[C@H]1O (stereo partly specified) = > 100 µM (inactive)
• Cc1cccc(NC2=NC(=O)C(CC(=O)Nc3cccc(C)c3C)S2)c1 (stereo unspecified) = > 100 µM (inactive)
• Cc1cc(NC(=O)NC(=O)c2ccccc2N)ccc1Oc1ncc(Br)cn1 = 0.0702 µM (active)
• Cc1cc2nn(C3CCCO3)nc2cc1C (stereo unspecified) = > 100 µM (inactive)
• COc1ccc(/N=c2/[nH]c(N)c(C(=O)c3ccc(OC)cc3)s2)cc1 = 17.7 µM (inactive)
• COc1ccc(-c2oc3c(OC)c(OC)c(OC)c(OC)c3c(=O)c2OC)cc1OC = 48.9 µM (inactive)
• CCCCCCNCCCNc1c2cc(OC)ccc2nc2cccc([N+](=O)[O-])c12 = 0.257 µM (active)
• O=C1C2=C(c3ccccc31)C(c1ccccc1Cl)N1C(=O)CSC1=N2 (stereo unspecified) = > 100 µM (inactive)
• COc1ccc(CC(=O)NCCc2ccc(OC)c(OC)c2)cc1Br = 41.5 µM (inactive)
• CC(C)OC(=O)C1(C(C)C)CCc2ccc(C(=O)CCC(=O)O)cc21 (stereo unspecified) = > 100 µM (inactive)
• CCC(C)[C@@H](NCc1ccccc1)[C@H](OCc1ccccc1)[C@@H]1COC(C)(C)O1 (stereo partly specified) = 14.8 µM (inactive)
• CC(C)(C)OC(=O)NC1CCC(C(C)(C)C)CC1 (stereo unspecified) = 26.4 µM (inactive)
• COc1cc2c(cc1OC)CN1CCCc3cc(OC)c(OC)cc3C1C2 (stereo unspecified) = 27.9 µM (inactive)
• C/C(CC(=O)N(C(C)C)C(C)C)=N\NC(=O)c1ccncc1 = > 100 µM (inactive)
• O=C1c2ccccc2C(C2c3ccccc3C(=O)c3cc(Br)ccc32)c2ccc(Br)cc21 (stereo unspecified) = > 100 µM (inactive)
• C=CCNC(=O)CN(CC(=O)OC)C1CCCCC1N(CC(=O)OC)CC(=O)OC (stereo unspecified) = > 100 µM (inactive)
• Nc1nc(N)c(CCCCc2ccccc2)c(/C=C/c2ccc([N+](=O)[O-])cc2)n1 = 26.1 µM (inactive)
• CCN(CC)CCCn1c(=O)c2cccnc2n2c3c(=O)n(C)c(=O)n(C)c3nc12 = > 100 µM (inactive)
• COC(=O)[C@H](Cc1ccccc1)NC(=O)c1ccc(CNC(=O)/C=C/c2ccc(-c3ccccc3)cc2)cc1 = > 100 µM (inactive)
• O=c1cc(NNc2ccccc2F)[nH]c(=O)[nH]1 = 21.2 µM (inactive)
